Hey, just so you know, these numbers are from ChEMBL document CHEMBL1133757.

- System Tested: Delta-type opioid receptor (Homo sapiens)
- Sequence (P41143 whole entry): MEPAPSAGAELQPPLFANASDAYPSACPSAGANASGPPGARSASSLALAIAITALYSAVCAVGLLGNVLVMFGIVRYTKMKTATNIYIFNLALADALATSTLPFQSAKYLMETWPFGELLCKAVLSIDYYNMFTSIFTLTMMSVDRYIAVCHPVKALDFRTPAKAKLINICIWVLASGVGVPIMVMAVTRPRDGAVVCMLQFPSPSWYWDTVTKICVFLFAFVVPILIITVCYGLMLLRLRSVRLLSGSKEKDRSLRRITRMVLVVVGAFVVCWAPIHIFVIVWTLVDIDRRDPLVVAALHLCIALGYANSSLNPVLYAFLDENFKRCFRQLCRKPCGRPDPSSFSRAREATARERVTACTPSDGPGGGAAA
- Test Name: Inhibition of [3H]- diprenorphine binding to Opioid receptor delta 1
Readout: pKi
Numbers only, as −log10 of the molar value.

Prompt: Could you tell me which pKi is on file for O=Cc1ccc(C(=O)NCC(=O)N[C@@H]2CC[C@@]3(O)[C@H]4Cc5ccc(O)c6c5C3(CCN4CC3CC3)C2O6)cc1C=O (stereo partly specified) ?
Completion: 8.59

---

- System Tested: Mu-type opioid receptor (Homo sapiens, UniProt P35372)
- Sequence (P35372 whole entry): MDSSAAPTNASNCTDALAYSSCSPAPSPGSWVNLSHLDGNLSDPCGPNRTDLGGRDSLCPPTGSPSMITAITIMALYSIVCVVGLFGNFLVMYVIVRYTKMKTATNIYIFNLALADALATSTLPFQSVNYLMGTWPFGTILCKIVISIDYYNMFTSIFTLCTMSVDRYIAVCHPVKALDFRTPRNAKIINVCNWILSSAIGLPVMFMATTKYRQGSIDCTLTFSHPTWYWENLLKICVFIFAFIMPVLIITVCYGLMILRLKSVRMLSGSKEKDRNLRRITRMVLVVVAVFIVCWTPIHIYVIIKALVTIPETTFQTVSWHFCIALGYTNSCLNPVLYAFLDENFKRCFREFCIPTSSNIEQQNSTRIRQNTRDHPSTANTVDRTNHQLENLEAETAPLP
Readout: Ki (pM)
Numbers only, in pM.

Prompt: Could you tell me which Ki is on file for O=Cc1ccc(C(=O)NCC(=O)N[C@@H]2CC[C@@]3(O)[C@H]4Cc5ccc(O)c6c5C3(CCN4CC3CC3)C2O6)cc1C=O (stereo partly specified) ?
Completion: 450
